Recorded CRP values for a group of compounds are listed next.
- ASSAY_OVERVIEW: RP TLC on unimpregnated RP-2 control plate
- Type: physicochemical
- MEASUREMENT_PARAMETERS: Rf value from unimpregnated RP plate (control); mobile phase pH 7.4

>  <COMPOUND>
CC[C@@H](CO)NCCN[C@@H](CC)CO

>  <CRP>
0.97

$$$$
>  <COMPOUND>
CO[C@H]1/C=C/O[C@@]2(C)Oc3c(C)c(O)c4c(O)c(c(/C=N/N5CCN(C)CC5)c(O)c4c3C2=O)NC(=O)/C(C)=C\C=C\[C@H](C)[C@H](O)[C@@H](C)[C@@H](O)[C@@H](C)[C@H](OC(C)=O)[C@@H]1C

>  <CRP>
0.95

$$$$
>  <COMPOUND>
CCCCN1CCCCC1C(=O)Nc1c(C)cccc1C (stereo not drawn)

>  <CRP>
0.74

$$$$
>  <COMPOUND>
CC(=O)Nc1nnc(S(N)(=O)=O)s1

>  <CRP>
0.97

$$$$
>  <COMPOUND>
CCC(C)n1ncn(-c2ccc(N3CCN(c4ccc(OCC5COC(Cn6cncn6)(c6ccc(Cl)cc6Cl)O5)cc4)CC3)cc2)c1=O (stereo not drawn)

>  <CRP>
0.86

$$$$
>  <COMPOUND>
CC(N)C12CC3CC(CC(C3)C1)C2 (stereo not drawn)

>  <CRP>
0.95

$$$$
>  <COMPOUND>
CC(C)(C)NC[C@H](O)COc1nsnc1N1CCOCC1

>  <CRP>
0.97

$$$$
>  <COMPOUND>
Nc1ccc(O)c(C(=O)O)c1

>  <CRP>
0.99

$$$$
>  <COMPOUND>
CCC1(c2ccccc2)C(=O)NCNC1=O

>  <CRP>
0.93

$$$$
